Biological target: pooled human IgG
MEASURED PROPERTY: Enzyme Activity Endpoint Assay (purified): IgG (ng/µL)
Just the number in ng/µL, nothing appended.

Ask: Provide Enzyme Activity Endpoint Assay (purified): IgG value for the following protein: PRT-231 (protein) MEVVEVWPYGQNPNGKTEILSQTEDSESLQRLRDIEDFQAEKKMQNVVYTKWLDGVDVKDHDFRKIVDGNIAYYATPLLNGRGFYDINKDFNRDSDKCAAAVAANMFHYWLDINRDNVDRFLRQNPEKHGIIELPDGQLKLSDFLNTYESDHGYRDKSKLFDFISNNFNGPVWTDKLLDNYINGYAYNYKYGRTIEDPTKNTSKINFFKEVFNEKILTNNHSIRNQNEFSVLLSEALYTGKAIGLSYGPAGLRHSLGHIISVWGADLDADGNVVAIYVTDSDDKKLTIGDERVGLKRYKISTDDENRARLTAYEETHNTGGQIRGLWTLDTGKYAWADYFDKTEQTGTDQAEQLEHHHHHH
Reply: 465
